Each entry below lists one item and its recorded pEC50 value.
- assayed_target: Peroxisome proliferator-activated receptor gamma (Homo sapiens, UniProt P37231)
- Sequence (P37231 whole entry, the tested form may be a part): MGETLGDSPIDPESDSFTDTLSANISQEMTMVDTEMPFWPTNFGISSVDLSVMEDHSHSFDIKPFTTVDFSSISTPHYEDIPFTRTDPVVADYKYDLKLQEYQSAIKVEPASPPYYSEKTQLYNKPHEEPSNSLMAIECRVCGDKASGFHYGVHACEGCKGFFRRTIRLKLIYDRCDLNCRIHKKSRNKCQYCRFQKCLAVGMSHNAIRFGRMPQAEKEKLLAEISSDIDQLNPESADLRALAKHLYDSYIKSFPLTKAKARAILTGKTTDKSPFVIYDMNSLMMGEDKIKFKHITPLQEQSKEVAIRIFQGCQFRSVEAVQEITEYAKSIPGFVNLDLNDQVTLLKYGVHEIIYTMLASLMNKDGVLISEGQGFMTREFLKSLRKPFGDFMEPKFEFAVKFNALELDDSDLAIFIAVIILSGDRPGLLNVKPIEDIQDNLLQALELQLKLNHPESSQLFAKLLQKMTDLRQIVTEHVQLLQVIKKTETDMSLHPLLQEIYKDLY
- assay_summary: Agonist activity at human GAL4 fused PPARgamma-Hinge-LBD expressed in HEK293T cells after 18 hrs by luciferase reporter gene assay
Notebook: values listed as pEC50 are -log10 of the concentration (mol/L).

Known results for compounds:
| given_smiles | reported_result |
| --- | --- |
| O=S(=O)(Nc1cc(Cl)c(Oc2cnc3ccccc3c2)c(Cl)c1)c1ccc(Br)c(F)c1 | 6.77 |
| O=S(=O)(Nc1cc(Cl)c(Oc2cnc3ccccc3c2)c(Cl)c1)c1ccc(Br)cc1 | 6.82 |
| Cc1cc(S(=O)(=O)Nc2cc(Cl)c(Oc3cnc4ccccc4c3)c(Cl)c2)ccc1Br | 6.22 |

Briefly, pEC50 measured for "O=S(=O)(Nc1cc(Cl)c(Oc2cnc3ccccc3c2)c(Cl)c1)c1ccc(Br)cc1C(F)(F)F" : 7.03

Briefly, pEC50 measured for "O=S(=O)(Nc1cc(Cl)c(Oc2cnc3ccccc3c2)c(Cl)c1)c1ccccc1Cl" : 5.24

Briefly, pEC50 measured for "O=S(=O)(Nc1cc(Cl)c(Oc2cnc3ccccc3c2)c(Cl)c1)c1ccc(Br)cc1OC(F)(F)F" : 8.40
